Where do the numbers come from? From patent US20060069132A1.

Please go through the items and note down their Plant response rating, Foxtail, Giant.
tested on: giant foxtail; test: Test B pre-/postemergence herbicide test; type: in vivo, Setaria faberi; conditions: 500 g ai/ha; visual rating, 0 = no effect, 100 = complete control; preemergence
// print number alone

Which Plant response rating, Foxtail, Giant reading was recorded for the compound CCn1nc(C(C)(C)C)cc1C(=O)Nc1cc(C(=O)N(C)OC)ccc1F ?
90

Which Plant response rating, Foxtail, Giant reading was recorded for the compound CCNC(=O)c1ccc(F)c(NC(=O)C2CC(C(C)(C)C)=NN2CC)c1 (racemic) ?
100

Which Plant response rating, Foxtail, Giant reading was recorded for the compound CCc1nn(C(C)(C)C)cc1C(=O)Nc1cccc(C(=O)N(C)C)n1 ?
70

Which Plant response rating, Foxtail, Giant reading was recorded for the compound C#CCNC(=O)c1ccc(F)c(NC(=O)c2cc(C(C)(C)C)nn2CC)n1 ?
30

Which Plant response rating, Foxtail, Giant reading was recorded for the compound CCNC(=O)c1ccc(F)c(NC(=O)c2cc(C(C)(C)C)nn2CC)n1 ?
80

Which Plant response rating, Foxtail, Giant reading was recorded for the compound CCn1nc(C(C)(C)C)cc1C(=O)Nc1ccnc(C(=O)N(C)C)c1 ?
60

Which Plant response rating, Foxtail, Giant reading was recorded for the compound CCNC(=O)c1ccc(F)c(NC(=O)c2sc(C(C)(C)C)nc2CC)c1 ?
70

Which Plant response rating, Foxtail, Giant reading was recorded for the compound CCNC(=O)c1cc(NC(=O)c2cc(C(C)(C)C)nn2CC)c(F)cc1F ?
90
